// provenance: ChEMBL document CHEMBL3414481

MEASURED_TARGET: UniProt P30559
Sequence (P30559 whole entry): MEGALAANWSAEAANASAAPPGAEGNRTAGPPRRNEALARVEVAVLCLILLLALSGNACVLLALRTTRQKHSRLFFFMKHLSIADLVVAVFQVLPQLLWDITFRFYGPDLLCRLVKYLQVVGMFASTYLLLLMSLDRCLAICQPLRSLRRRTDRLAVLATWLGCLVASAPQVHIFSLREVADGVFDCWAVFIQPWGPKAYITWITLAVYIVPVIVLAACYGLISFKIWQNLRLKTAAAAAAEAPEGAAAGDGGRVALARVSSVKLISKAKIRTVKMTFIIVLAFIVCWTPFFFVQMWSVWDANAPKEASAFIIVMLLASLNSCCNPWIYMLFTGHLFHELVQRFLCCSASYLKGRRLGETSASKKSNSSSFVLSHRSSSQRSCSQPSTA
ASSAY_REMARKS: Displacement of [3H]-oxytocin from human oxytocin receptor expressed in HEK cell membranes after 1 hr by scintillation proximity assay
Set-up: species or system HEK293
TEST_CONDITIONS: read-out: Ki
ASSAY_METRIC: Ki
I'd appreciate it if you included the unit after the number.

Measured Ki for this entry O=C(c1c[nH]c2cc(Cl)ccc12)N1CCC2(CC1)OCc1ccccc12 on UniProt P30559: 7.52 µM

###

ASSAY_METRIC: Ki (µM)
Your answer should be a plain number; it is taken to be in µM.

Measured Ki for this entry Cc1c(C(=O)N2CCC3(CC2)OCc2ccccc23)c2ccccc2n1Cc1ccccc1 on Vasopressin V2 receptor (Homo sapiens, UniProt P30518): 9.31

###

MEASURED_TARGET: Vasopressin V1a receptor (Homo sapiens, UniProt P37288)
Sequence (P37288 whole entry, looked up): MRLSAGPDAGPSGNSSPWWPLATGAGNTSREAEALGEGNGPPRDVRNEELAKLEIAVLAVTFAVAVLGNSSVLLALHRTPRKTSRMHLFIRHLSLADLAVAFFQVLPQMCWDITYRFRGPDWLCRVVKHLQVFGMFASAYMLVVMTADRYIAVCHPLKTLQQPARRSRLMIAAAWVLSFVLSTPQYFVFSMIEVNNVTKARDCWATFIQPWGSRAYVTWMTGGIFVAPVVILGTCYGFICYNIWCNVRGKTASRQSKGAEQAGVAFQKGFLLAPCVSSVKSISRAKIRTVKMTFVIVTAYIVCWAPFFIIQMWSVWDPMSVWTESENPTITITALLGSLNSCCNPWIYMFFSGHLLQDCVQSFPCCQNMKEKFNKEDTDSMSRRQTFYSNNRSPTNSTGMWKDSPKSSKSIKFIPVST
ASSAY_REMARKS: Antagonist activity at human vasopressin 1a receptor expressed in CHO cells assessed as inhibition of vasopressin-induced calcium flux preincubated for 20 mins followed by vasopressin induction measured for 5 mins by FLIPR assay
Format: functional, cell-based
ASSAY_METRIC: log10 of Kb (log10 of the value in nM)
Give log10 of Kb, with Kb taken in nM.

Entry CN1CCC[C@H]1Cn1cc(C(=O)N2CCC3(CC2)OCc2ccccc23)c2ccc(Cl)cc21 — recorded log10 of Kb = -0.30

Entry Cc1c(C(=O)N2CCC3(CC2)OCc2ccccc23)c2ccccc2n1Cc1ccccc1 — recorded log10 of Kb = 0.56

Entry CN1CCN(C(=O)Cn2cc(C(=O)N3CCC4(CC3)OCc3ccccc34)c3ccc(Cl)cc32)CC1 — recorded log10 of Kb = -0.70

Entry CN(C)C(=O)Cn1cc(C(=O)N2CCC3(CC2)OCc2ccccc23)c2ccc(Cl)cc21 — recorded log10 of Kb = -1.00

Entry O=C(c1c[nH]c2cc(Cl)ccc12)N1CCN(c2ccccc2Cl)CC1 — recorded log10 of Kb = 2.29

Entry O=C(c1c[nH]c2cc(Cl)ccc12)N1CCC2(CC1)COc1ccccc12 — recorded log10 of Kb = 1.86

Entry O=C(c1c[nH]c2cc(Cl)ccc12)N1CCC(n2c(=O)[nH]c3ccccc32)CC1 — recorded log10 of Kb = 1.15

Entry CN1CCC(n2cc(C(=O)N3CCC4(CC3)OCc3ccccc34)c3ccc(Cl)cc32)CC1 — recorded log10 of Kb = 0.52

Entry O=C1Nc2ccccc2C2(CCN(C(=O)c3c[nH]c4cc(Cl)ccc34)CC2)O1 — recorded log10 of Kb = 1.58
